tested on: Plasmodium berghei; assay: Luciferase/luciferin-expressing antifolate-resistant parasites were used to infect a culture of HepG2 cells that were pre-incubated with compounds. Infected hepatocytes emit light due to the luciferase reaction. Assay results are presented as the percent inhibition of light emission compared to control. […]; format: functional; details: sporozoite, PBLUC_HILL_SLOPE 202, PBLUC_R_SQUARED 0.785, read-out: LUCIFERASE INFECTION ASSAY - IC50
Property Measured: IC50 (µM)
Numbers only, in µM.

# input Would you mind telling me what IC50 value was observed for NC(Cc1ccc(F)cc1)c1csc(Nc2ccc(C(F)(F)F)cn2)n1 (stereo unspecified) ?
# output 5.91

Source: ChEMBL document CHEMBL4483862
